Form field: IC50 (one value per entry).
- measuredTarget: 5-lipoxygenase (Rattus norvegicus)
- Construct: An enzyme solution containing 5-lipoxygenase was prepared from cultured basophilic leukemia cell strain RBL-1 cells; endogenous in cells
- experimentDescription: 5-Lipoxygenase inhibitory activity (5-HETE formation, enzyme solution from RBL-1 cells)
- runParameters: radiolabelled arachidonic acid substrate, indomethacin, calcium chloride, ATP; RBL-1 enzyme
measurementType: IC50 (nM)

compound	measuredTarget	measurementType	valueMeasured
Cc1cc(NC(=O)c2cc3ccccc3s2)cc(C)c1O	5-lipoxygenase (Rattus norvegicus)	IC50	210
CCCCCCCCC(=O)Nc1cc(C)c(O)c(C)c1	5-lipoxygenase (Rattus norvegicus)	IC50	400
CC(C)c1cc(NC(=O)c2cccs2)cc(C(C)C)c1O	5-lipoxygenase (Rattus norvegicus)	IC50	150
CC(=O)Oc1ccc(CCC(=O)Nc2cc(C)c(O)c(C)c2)cc1OC(C)=O [drawing 20]	5-lipoxygenase (Rattus norvegicus)	IC50	200
COc1ccc(/C=C/C(=O)Nc2cc(C)c(O)c(C)c2)cc1 [drawing 17]	5-lipoxygenase (Rattus norvegicus)	IC50	220
COc1ccc(CCC(=O)Nc2cc(C)c(O)c(C)c2)cc1 [drawing 21]	5-lipoxygenase (Rattus norvegicus)	IC50	250
Cc1ccc(C(=O)Nc2cc(C)c(O)c(C)c2)s1 [drawing 8]	5-lipoxygenase (Rattus norvegicus)	IC50	270

----------
Form field: IC50 (one value per entry).
- measuredTarget: 5-lipoxygenase (Rattus norvegicus, UniProt P12527)
- Construct: An enzyme solution containing 5-lipoxygenase was prepared from cultured basophilic leukemia cell strain RBL-1 cells; endogenous in cells
- Sequence (P12527 whole entry): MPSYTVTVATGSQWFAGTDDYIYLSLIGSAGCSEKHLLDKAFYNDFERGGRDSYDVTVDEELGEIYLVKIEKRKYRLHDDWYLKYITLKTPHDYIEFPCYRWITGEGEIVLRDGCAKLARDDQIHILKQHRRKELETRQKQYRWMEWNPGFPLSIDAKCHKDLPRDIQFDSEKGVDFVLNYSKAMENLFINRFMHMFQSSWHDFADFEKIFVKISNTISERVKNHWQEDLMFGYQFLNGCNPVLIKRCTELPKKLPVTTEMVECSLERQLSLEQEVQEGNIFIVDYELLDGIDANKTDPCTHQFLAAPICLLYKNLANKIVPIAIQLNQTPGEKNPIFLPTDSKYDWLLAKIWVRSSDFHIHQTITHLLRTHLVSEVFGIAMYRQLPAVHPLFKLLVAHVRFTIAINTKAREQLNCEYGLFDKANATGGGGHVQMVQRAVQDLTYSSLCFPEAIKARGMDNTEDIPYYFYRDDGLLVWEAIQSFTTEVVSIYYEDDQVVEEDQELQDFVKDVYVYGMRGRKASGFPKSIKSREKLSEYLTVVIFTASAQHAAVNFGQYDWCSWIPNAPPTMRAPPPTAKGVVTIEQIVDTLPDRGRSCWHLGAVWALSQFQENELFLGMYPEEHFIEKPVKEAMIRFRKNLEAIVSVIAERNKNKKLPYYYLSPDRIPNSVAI
- experimentDescription: 5-Lipoxygenase inhibitory activity (5-HETE formation, enzyme solution from RBL-1 cells)
- runParameters: radiolabelled arachidonic acid substrate, indomethacin, calcium chloride, ATP; RBL-1 enzyme
- Protocol: An enzyme solution containing 5-lipoxygenase was prepared from cultured basophilic leukemia cell strain RBL-1 cells, and the reaction was carried out with radiolabelled arachidonic acid as the substrate in the presence of indomethacin, calcium chloride, adenosine triphosphate and the substance to be tested. […]

molecule	IC50 (nM)
Cc1cc(NC(=O)c2ccsc2)cc(C)c1O [drawing 7]	810
Cc1cc(NC(=O)CCc2cccs2)cc(C)c1O [drawing 13]	760
COc1cccc(/C=C/C(=O)Nc2cc(C)c(O)c(C)c2)c1 [drawing 16]	240
COc1ccc(/C=C(\C)C(=O)Nc2cc(C)c(O)c(C)c2)cc1 [drawing 19]	150
CCCCCCC(=O)Nc1cc(C)c(O)c(C)c1 [both CH3, (CH2)5 CH3]	300
Cc1cc(NC(=O)/C=C/c2cccs2)cc(C)c1O [drawing 11]	200
Cc1cc(NC(=O)/C=C/c2cccn2C)cc(C)c1O	440
CC=CC=CC(=O)Nc1cc(C)c(O)c(C)c1	400
COc1ccc(/C=C(\C)C(=O)Nc2cc(C(C)C)c(O)c(C(C)C)c2)cc1 [drawing 22]	150
CCCCCCCC(=O)Nc1cc(C)c(O)c(C)c1 [both CH3, (CH2)6 CH3]	330
